Entries and their pKi
# Target Or System: human O-GlcNAcase (Homo sapiens (Human), UniProt O60502)
# Sequence (O60502 whole entry): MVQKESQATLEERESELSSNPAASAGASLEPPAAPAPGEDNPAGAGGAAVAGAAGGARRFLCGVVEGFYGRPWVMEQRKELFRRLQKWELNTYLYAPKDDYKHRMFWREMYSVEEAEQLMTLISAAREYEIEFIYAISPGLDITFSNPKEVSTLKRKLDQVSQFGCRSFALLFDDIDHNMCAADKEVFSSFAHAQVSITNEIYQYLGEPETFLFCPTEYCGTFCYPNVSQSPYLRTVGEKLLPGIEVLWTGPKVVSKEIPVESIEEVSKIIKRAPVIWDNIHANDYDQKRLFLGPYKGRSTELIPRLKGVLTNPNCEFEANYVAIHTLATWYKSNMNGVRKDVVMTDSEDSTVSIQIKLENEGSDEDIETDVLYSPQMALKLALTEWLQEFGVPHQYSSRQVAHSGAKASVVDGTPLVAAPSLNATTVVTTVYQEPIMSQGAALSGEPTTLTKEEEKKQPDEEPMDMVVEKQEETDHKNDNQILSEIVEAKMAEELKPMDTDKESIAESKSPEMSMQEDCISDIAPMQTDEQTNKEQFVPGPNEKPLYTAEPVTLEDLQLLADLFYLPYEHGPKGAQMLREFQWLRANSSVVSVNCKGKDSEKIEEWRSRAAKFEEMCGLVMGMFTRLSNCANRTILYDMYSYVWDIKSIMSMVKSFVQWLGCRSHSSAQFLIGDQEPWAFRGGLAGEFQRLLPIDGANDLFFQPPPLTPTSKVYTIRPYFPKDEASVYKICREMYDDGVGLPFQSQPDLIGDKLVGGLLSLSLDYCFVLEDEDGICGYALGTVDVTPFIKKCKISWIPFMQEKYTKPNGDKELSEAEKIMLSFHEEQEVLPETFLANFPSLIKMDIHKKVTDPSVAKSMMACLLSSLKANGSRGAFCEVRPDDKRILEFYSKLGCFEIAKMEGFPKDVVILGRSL
# Method Summary: Fluorescence-based assay for determination of KI values for inhibition of O-GlcNAcase activity
# Assay type: biochemical
# Details: purified human O-GlcNAcase, 4-Methylumbelliferyl N-acetyl-β-D-glucosaminide substrate, pH 7.0, Cheng-Prusoff; read-out: Fluorescence-based hOGA Ki
// field semantics: pKi = negative decimal log of concentration (mol/L)

> print(dat)
                                   compound                          target.or.system  endpoint.value
1  C[C@H](O)[C@H]1O[C@@H]2SC(N3CCC3)=N[C@@H]2[C@@H](O)[C@@H]1O (single isomer, unassigned)  human O-GlcNAcase (Homo sapiens (Human), UniProt O60502)            9.74

Give the reported pKi for C=CC[C@H](O)[C@H]1O[C@@H]2SC(NC)=N[C@@H]2[C@@H](O)[C@@H]1O (single isomer, unassigned) (system: human O-GlcNAcase (Homo sapiens (Human), UniProt O60502)).
9.15

Give the reported pKi for C[C@H](O)[C@H]1O[C@@H]2SC(N3CCCC3)=N[C@@H]2[C@@H](O)[C@@H]1O (single isomer, unassigned) (system: human O-GlcNAcase (Homo sapiens (Human), UniProt O60502)).
9.28

====

# Target Or System: human O-GlcNAcase (Homo sapiens (Human), UniProt O60502)
# Method Summary: Fluorescence-based assay for determination of KI values for inhibition of O-GlcNAcase activity
# Assay type: biochemical
# Details: purified human O-GlcNAcase, 4-Methylumbelliferyl N-acetyl-β-D-glucosaminide substrate, pH 7.0, Cheng-Prusoff; read-out: Fluorescence-based hOGA Ki
Entries and their log10 Ki
Log scale reminder: Ki in nM, then log10 taken.

Recorded results for 5 compounds are shown here.
> print(dat)
                                   compound  endpoint.value
1  CNC1=N[C@@H]2[C@@H](O)[C@H](O)[C@@H]([C@H](C)O)O[C@@H]2S1 (single isomer, unassigned) [Example 13]           -0.40
2  CN(C)C1=N[C@@H]2[C@@H](O)[C@H](O)[C@@H](C(C)(C)O)O[C@@H]2S1 [Example 4]            0.49
3  C[C@H](O)[C@H]1O[C@@H]2SC(NCCF)=N[C@@H]2[C@@H](O)[C@@H]1O [Example 141]           -0.09
4  CCNC1=N[C@@H]2[C@@H](O)[C@H](O)[C@@H]([C@@H](O)CC)O[C@@H]2S1 [Example 105]            0.53
5  CCC[C@H](O)[C@H]1O[C@@H]2SC(N(C)C)=N[C@@H]2[C@@H](O)[C@@H]1O (single isomer, unassigned) [Example 69]            0.97

log10 Ki for C[C@H](O)[C@H]1O[C@@H]2SC(N(C)C)=N[C@@H]2[C@@H](O)[C@@H]1O [Example 1] ?
-0.77

log10 Ki for C=C(C)[C@H](O)[C@H]1O[C@@H]2SC(N(C)C)=N[C@@H]2[C@@H](O)[C@@H]1O (single isomer, unassigned) [Example 65] ?
-0.35

log10 Ki for CN(C)C1=N[C@@H]2[C@@H](OCc3ccccc3)[C@H](COCc3ccccc3)[C@@H](C(O)C3SCCCS3)O[C@@H]2S1 (some centres unmarked) [Example 96] ?
-0.72

log10 Ki for C[C@H](O)[C@H]1O[C@@H]2SC(NCC3CC3)=N[C@@H]2[C@@H](O)[C@@H]1O (single isomer, unassigned) [Example 53] ?
-0.15

log10 Ki for C=CC(O)C1O[C@@H]2SC(N(C)CC)=N[C@@H]2[C@@H](O)[C@@H]1O (single isomer, unassigned) [Example 61] ?
0.39

log10 Ki for CC[C@H]1O[C@@H]2SC(NC)=N[C@@H]2[C@@H](O)[C@@H]1O [Example 8] ?
-0.17
